The measured values listed here are drawn from patent US7968556B2.

melting point reference

> print(dat)
                                   molecule   measure.name    result
1  NC(=O)c1nc(-c2cccc(O)c2)nc2c1[nH]c(=O)n2-c1ccccc1C1CCCCC1  melting point  > 270 °C

### Prompt Quickly give me recorded melting point for NC(=O)c1nc(-c2cccnc2)nc2c1[nH]c(=O)n2[C@H]1CC[C@H](O)CC1 [Compound 50]
### Response 343 to 345 °C

### Prompt Quickly give me recorded melting point for `COc1ccccc1-n1c(=O)[nH]c2c(C(N)=O)nc(C3CCCC3)nc21`
### Response 244 to 246 °C

### Prompt Quickly give me recorded melting point for `COc1ccccc1-n1c(=O)[nH]c2c(C(N)=O)nc(NC[C@@H]3CCCN3)nc21`
### Response 160 to 165 °C

### Prompt Quickly give me recorded melting point for NC(=O)c1nc(-c2cccc(O)c2)nc2c1[nH]c(=O)n2[C@H]1CC[C@H](O)CC1 [Compound 49]
### Response 373 to 375 °C

### Prompt Quickly give me recorded melting point for NC(=O)c1nc(-c2cccc(O)c2)nc2c1[nH]c(=O)n2C1CCc2ccccc21 (centres unmarked)
### Response 341 to 343 °C

### Prompt Quickly give me recorded melting point for `COc1ccccc1-n1c(=O)[nH]c2c(C(N)=O)nc(-c3cccc(O)c3Cl)nc21`
### Response 331 to 334 °C

### Prompt Quickly give me recorded melting point for `COc1ccccc1-n1c(=O)[nH]c2c(C(N)=O)nc(Nc3ccc(O)cc3)nc21`
### Response 223 to 224 °C

### Prompt Quickly give me recorded melting point for `COc1ccccc1-n1c(=O)[nH]c2c(C(N)=O)nc(-c3cccc(N)c3)nc21`
### Response 284 to 285 °C

### Prompt Quickly give me recorded melting point for `CO[C@H]1CC[C@H](n2c(=O)[nH]c3c(C(N)=O)nc(-c4cccc(O)c4)nc32)CC1`
### Response 355 to 357 °C

### Prompt Quickly give me recorded melting point for `NC(=O)c1nc(-c2ccc3nc[nH]c3c2)nc2c1[nH]c(=O)n2C1CCCCC1`
### Response 280 °C (dec.)

### Prompt Quickly give me recorded melting point for `NC(=O)c1nc(-c2cncc(Cl)c2)nc2c1[nH]c(=O)n2-c1ccccc1C(F)(F)F`
### Response 230 to 232 °C

### Prompt Quickly give me recorded melting point for `COc1ccccc1-n1c(=O)[nH]c2c(C(N)=O)nc(NCCO)nc21`
### Response 157 to 160 °C

### Prompt Quickly give me recorded melting point for `Cc1ccccc1-n1c(=O)[nH]c2c(C(N)=O)nc(-c3cccc(O)c3)nc21`
### Response 366 to 367 °C

### Prompt Quickly give me recorded melting point for `NC(=O)c1nc(-c2cccc(O)c2)nc2c1[nH]c(=O)n2CC1CCCCC1`
### Response 368 to 370 °C

### Prompt Quickly give me recorded melting point for `NC(=O)c1nc(-c2ccncc2)nc2c1NC(=O)CN2c1ccccc1`
### Response 298 to 304 °C

### Prompt Quickly give me recorded melting point for `COc1ccccc1-n1c(=O)[nH]c2c(C(N)=O)nc(-c3ccncc3)nc21`
### Response 318 to 320 °C
